test: NCI Yeast Anticancer Drug Screen. Data for the sgs1 mgt1 strain (AID 161);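 also: 0% = growth of cultures given vehicle only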; settings: S. cerevisiae sgs1 mgt1 strain, at 50.0 µM, stronger effect = higher value
This is part of a sample that, as a whole, favours compounds with a hit. Of some 79,000 tested, about 15% had one in any assay.
Reported Property: growth inhibition (%)
All answers are understood in %, so give the number only.

Entry CC(C)c1c(P(=O)(c2ccccc2)c2ccccc2)n(C)c2ccccc12 ; growth inhibition = 77.8

Entry O=C(O)c1ccccc1/C=C1\Cc2ccc3c(c2C1=O)CCCC3 ; growth inhibition = 81.3

Entry O=C(CC1(O)C(=O)Nc2c(Cl)cc(Cl)cc21)c1ccc(Br)cc1Br (stereo unspecified) ; growth inhibition = 91.3

Entry C[C@@]12C[C@@H](Br)[C@H](Br)C[C@]1(C)O2 ; growth inhibition = 98.1

Entry CCCCCCC(=O)CCCCCC/C=C\CC1OC(=O)C(N)(CO)C1O (stereo unspecified) ; growth inhibition = 93.2

###

test: NCI Yeast Anticancer Drug Screen. Data for the cln2 rad14 strain (AID 165);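 also: 0% = growth equal to vehicle treated cultures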; conditions: S. cerevisiae cln2 rad14 strain, at 50.0 µM (retest, dose inferred, filed as 5.0)
This is part of a sample that, as a whole, favours compounds with a hit. Of some 79,000 tested, about 15% had one in any assay. Calls of active or inactive are those of the source. No stated cut-off is given here; in the data, active means growth inhibition above about 70%; inactive means the rest.
Your reply should match one of these outcome classes. 1 (active), 0 (inactive)

Solved cases below.
CN(C)N=Nc1ccc2[nH]c(=O)[nH]c2c1    0
COc1ccc(C(c2ccc(N(C)C)cc2)c2ccc(N(C)C)cc2)cc1    1
O=C(O)c1ccccc1SC(Sc1ccccc1C(=O)O)c1cccc(Cl)c1    1
CCCCCCCCCCCC(=O)NN    0
CCCCCC(C)NCCOC(=O)c1ccccc1 (stereo unspecified)    0

### Prompt Lab log entry: COC(=O)c1cccc2c3ccccc3c3ccccc3c12 — outcome as called in the assay?
### Response 1

### Prompt Lab log entry: COc1ccc2c(c1)CCC1OC(c3cccnc3)OC21 (stereo unspecified) — outcome as called in the assay?
### Response 0

### Prompt Lab log entry: CCCCCCCCCCCCCCSC(=N)N — outcome as called in the assay?
### Response 1

### Prompt Lab log entry: COc1ccc(C2=C(Cl)C(=O)N(c3ccc(OC)cc3)C(=O)C2(Cl)Cl)cc1 — outcome as called in the assay?
### Response 0

### Prompt Lab log entry: CC[C@@H](C(=O)[C@@H](C)[C@@H](O)[C@H](C)CCc1ccc(C)c(O)c1C(=O)O)[C@H]1O[C@](CC)([C@H]2CC[C@](O)(CC)[C@H](C)O2)C[C@@H]1C — outcome as called in the assay?
### Response 1

### Prompt Lab log entry: CN(C)CCNc1ccc([N+](=O)[O-])c2nc3ccccc3c(N)c12 — outcome as called in the assay?
### Response 0

###

test: NCI Yeast Anticancer Drug Screen. Data for the mec2-1 strain (AID 157); conditions: S. cerevisiae mec2-1 strain, at 5.0 µM (retest, dose inferred, filed as 0.5), stronger effect = higher value
About 79,000 compounds went through this panel and 15% of them were active in at least one assay; those are over-represented in the sample as a whole.
Reported Property: growth inhibition (%)
All answers are understood in %, so give the number only.

Observe how each entry below is paired with its result.
NC(CSSCC(N)=NCCCCCSC12CC3CC(CC(C3)C1)C2)=NCCCCCSC12CC3CC(CC(C3)C1)C2    1
O=C(/C=C\c1ccc([N+](=O)[O-])o1)/C=C/c1ccc([N+](=O)[O-])o1    33
Nc1nc(N)c(C(=O)SCc2ccccc2)nc1Cl    2
Cc1c(Cl)cc2[nH]c(C(F)(F)F)nc2c1Cl    8
CCCCCCCCCCCCNC(=O)C[n+]1cccc(C(N)=O)c1    -3
O=C(O)c1c(-c2ccccc2)cc(-c2ccccc2)cc1-c1ccccc1    90

Entry OC1CN(C2CCCCC2)CC1C1(O)CCN(C2CCCCC2)C1 (stereo unspecified) ; growth inhibition = 1

Entry CC1(C)NNC(=S)NN1 ; growth inhibition = -3

###

Parameter growth inhibition: see the listing below.
test: NCI Yeast Anticancer Drug Screen. Data for the mlh1 rad18 strain (AID 175); conditions: S. cerevisiae mlh1 rad18 strain growth inhibition; at 5.0 µM (retest, dose inferred, filed as 0.5); stronger effect = higher value
This is part of a sample that, as a whole, favours compounds with a hit. Of some 79,000 tested, about 15% had one in any assay.
All answers are understood in %, so give the number only.

Observe how each entry below is paired with its result.
Cc1cc(O)c(C(=O)/C=C/c2ccnc3ccccc23)c(=O)o1    15
Cc1ccnc(NS(=O)(=O)c2ccc(N=Cc3c4ccccc4nc4cc(Cl)ccc34)cc2)n1    24
COP(=O)(OC)/C(=C/c1cn(C(c2ccccc2)(c2ccccc2)c2ccccc2)cn1)NC=O    -12
Nc1ccc2c(SCC(=O)Nc3ccccc3-c3ccccc3NC(=O)CSc3c4ccccc4nc4cc(N)ccc34)c3ccccc3nc2c1    11
O=C(O)c1ccccc1/C=N/O    0

Next molecule, please.
Entry COc1cc(/C=C2/N=C(c3ccccc3)N(C3=NNC4(C(=O)N3)c3ccccc3-c3ccccc34)NC2=O)ccc1O ; growth inhibition = -17

###

Parameter growth inhibition: see the listing below.
test: NCI Yeast Anticancer Drug Screen. Data for the mlh1 rad18 strain (AID 175); details: S. cerevisiae mlh1 rad18 strain growth inhibition; at 5.0 µM (retest, dose inferred, filed as 0.5); stronger effect = higher value
The panel holds about 79,000 compounds, 15% with a hit somewhere; the sample as a whole holds those more often.
All answers are understood in %, so give the number only.

OCCN=Cc1cccs1    -25
CCCCCCC(C)S(=O)(=O)c1ccc(C)cc1 (configuration not stated)    -3
COc1ccc(C2=C(Cl)C(=O)N(c3ccc(OC)cc3)C(=O)C2(Cl)Cl)cc1    6
O=C1CCCC1C(=O)OC1CCCC1 (configuration not stated)    14
Cc1ccc(C2(O)CC(c3ccc([N+](=O)[O-])o3)=NN2C(=O)COc2ccc(Cl)cc2)cc1 (configuration not stated)    43
Cc1ccc(S(=O)(=O)/C=C/C(=O)c2ccc3ccccc3c2)cc1    88
O=[N+]([O-])c1cnc(Sc2cncc[n+]2[O-])s1    99
O=C(NO)C(=O)Nc1cc(Cl)ccc1Cl    -2
CCCCCCC(OCCC)OCCC    -2
N=C(N)SC1c2ccccc2-c2ccc(N)cc21 (configuration not stated)    12

Entry N#CC1=C(N)OC(/C=C/c2ccccc2)=C(C#N)C1c1ccccc1 (configuration not stated) ; growth inhibition = 19

Entry O=C(CCBr)NC(=O)Oc1cccc2ccccc12 ; growth inhibition = 2

###

assay: NCI Yeast Anticancer Drug Screen. Data for the rad50 strain (AID 155);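 also: 0% = growth of vehicle-only cultures of the same strain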; details: S. cerevisiae rad50 strain growth inhibition; at 50.0 µM; stronger effect = higher value
Compounds without any hit were thinned out: in the full panel of roughly 79,000, 15% have a hit.
Response key: 1.0 means growth inhibition >= 50%; 0.0 means growth inhibition < 50%.

N#CCc1ccc2c(c1)Sc1ccccc1O2    1.0

### Prompt # bool: growth inhibition of O=C(c1ccccc1)C1N=NCC1c1ccc([N+](=O)[O-])cc1 (configuration not stated) >= 50%
### Response 0.0

###

experiment: NCI Yeast Anticancer Drug Screen. Data for the mec2-1 strain (AID 157); conditions: S. cerevisiae mec2-1 strain, at 5.0 µM (retest, dose inferred, filed as 0.5), stronger effect = higher value
The panel holds about 79,000 compounds, 15% with a hit somewhere; the sample as a whole holds those more often.
Reported Property: growth inhibition (%)
All answers are understood in %, so give the number only.

COc1ccc(C2Oc3ccc(Cl)cc3C=C2[N+](=O)[O-])cc1OC (stereo not drawn)    91
NC(=S)NNCCC(=O)Nc1ccccc1C(F)(F)F    -2
Cc1[nH]c2ccccc2c1-c1ccccc1    -48
O=c1[nH]c2ccccc2c2oc3ccccc3c12    -10
C=C1C(=O)OC2CC(C)C3C=CC(=O)C3CC12 (stereo not drawn)    12
Cc1ccc(C)c([N+](=O)[O-])c1    1
CCC[CH2][Sn]([Cl])([CH2]CCC)[S]/C(C#N)=N/N=C/c1ccc(N(C)C)cc1    97
COc1ccc(CCC2(C)OCCC(C)O2)cc1 (stereo not drawn)    13

Entry CC(C)C(=O)[O][Bi]([c]1ccccc1)[c]1ccccc1 ; growth inhibition = 7

Entry CC(C)OC(=O)c1ccc(NC(=O)CCl)cc1 ; growth inhibition = -1

Entry Oc1c(Br)ccc2cccnc12 ; growth inhibition = 23

Entry O=C(Nc1c(Cl)cccc1Cl)Oc1c(Br)cc(Br)cc1Br ; growth inhibition = 66

Entry O=C(O)COc1ccccc1C(=O)O ; growth inhibition = -2

###

assay: NCI Yeast Anticancer Drug Screen. Data for the mlh1 rad18 strain (AID 175); settings: S. cerevisiae mlh1 rad18 strain growth inhibition; at 50.0 µM (retest, dose inferred, filed as 5.0); stronger effect = higher value
The panel holds about 79,000 compounds, 15% with a hit somewhere; the sample as a whole holds those more often.
Reported Property: growth inhibition (%)
All answers are understood in %, so give the number only.

COC1OC(CI)C(OC(c2ccccc2)(c2ccccc2)c2ccccc2)C(OC(c2ccccc2)(c2ccccc2)c2ccccc2)C1OC(c1ccccc1)(c1ccccc1)c1ccccc1 (stereo not given)    11
CC12OC1C(=O)c1ccccc1C2=O (stereo not given)    95
Fc1ccc2[nH]ccc2c1    44

Entry CCC(N)(CO)CO ; growth inhibition = 8

Entry CC(=O)CC(=O)OCc1ccccc1 ; growth inhibition = 98

Entry COC1=CC(=O)c2ncc(Cl)cc2C1=O ; growth inhibition = 97
